# MEASURED ON: UniProt P18031
# Sequence (P18031 whole entry): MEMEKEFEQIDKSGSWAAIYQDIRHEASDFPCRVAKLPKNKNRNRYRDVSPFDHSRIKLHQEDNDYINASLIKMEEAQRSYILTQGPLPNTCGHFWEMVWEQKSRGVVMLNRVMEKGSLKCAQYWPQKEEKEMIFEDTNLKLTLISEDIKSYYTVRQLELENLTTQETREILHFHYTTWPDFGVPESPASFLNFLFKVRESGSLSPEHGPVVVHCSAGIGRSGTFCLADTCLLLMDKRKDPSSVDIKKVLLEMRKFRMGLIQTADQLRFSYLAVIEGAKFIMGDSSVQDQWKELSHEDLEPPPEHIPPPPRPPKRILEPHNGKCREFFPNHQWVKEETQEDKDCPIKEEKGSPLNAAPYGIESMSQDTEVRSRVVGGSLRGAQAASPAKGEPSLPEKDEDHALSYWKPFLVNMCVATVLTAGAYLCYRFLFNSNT
# ASSAY METHOD TEXT: Inhibition of human recombinant PTP1B
OUTCOME MEASURE: IC50 (µM)
Reply numerically in µM, unit not repeated.

[[record]]
molecule = "CC(C)=CCc1cc([C@@H]2CC(=O)c3c(O)cc(O)cc3O2)c(CC=C(C)C)c(O)c1O [SIGMOIDIN A]"
value = 14.4

[[record]]
molecule = "CC(C)=CCc1c([C@H]2CC(=O)c3c(O)cc(O)cc3O2)cc2c(c1O)OC(C)(C)C=C2 [SIGMOIDIN F]"
value = 14.2

[[record]]
molecule = "CC(C)=CCc1cc(/C=C/C(=O)c2ccc(O)cc2O)cc(CC=C(C)C)c1O [ABYSSINONE VI]"
value = 20.6


Form field - read-out: IC50; system: UniProt P18031; submitted item: CC(C)=CCc1cc([C@@H]2CC(=O)c3c(O)cc(O)cc3O2)cc2ccoc12 [ABYSSINOFLAVANONE VI] 18.9

Same read-out for CC(C)=CCc1cc(/C=C/C(=O)c2ccc(O)cc2O)ccc1O [LICOAGROCHALCONE A] ? 16.9

Same read-out for COc1cc([C@@H]2CC(=O)c3ccc(O)cc3O2)cc(CC=C(C)C)c1O ? 19.2
